Origin of values: PubChem BioAssay (NCI)

Tested on: NCI/ADR-RES ovarian
measurementProtocol: NCI-60 one-dose screen, 48 h
studyConditions: 10 µM unless noted
Procedure: Growth inhibition of the NCI/ADR-RES human […] tumor cell line is measured as a screen for anti-cancer activity. Cells are grown in 96 well plates and exposed to the test compound for 48 hours. Compounds are tested at a single concentration, which is 10^-5 M for most compounds. The reported endpoint is percent growth (GI% or GIPRCNT), where numbers from 0 - 100% represent growth inhibition, and numbers from -100% - 0 represent cell death. For example, a value of 40 represents 60% growth inhibition. […]
About 83,000 compounds went through this panel and 20% of them were active in at least one assay; those are over-represented in the sample as a whole. Active and inactive are the calls of the source. The calls were made as follows: active = growth percent below 10; inactive = the rest.
Labels: active, inactive

# compound, classification
measured = [
    ("COc1cc(/C=N/NC(=O)c2ccc(C(F)(F)F)nc2Nc2cc(Cl)ccc2C)cc(OC)c1OC", "inactive"),
    ("Cc1ccc(NC(=O)c2sc3nc4c(cc3c2N)C(=O)CCC4)cc1", "inactive"),
    ("c1ccc2nc(N/N=C3\\CCCCC3C3CCCCC3)ccc2c1 (centres undefined)", "inactive"),
    ("O=C(/C=C/c1ccc([N+](=O)[O-])cc1)c1ccc2c3c(cccc13)CC2", "inactive"),
    ("CCOC(=O)c1cnc2c(C)cc(C)cc2c1NCCCN(C)C", "inactive"),
    ("O=C1CNc2cc(Cl)ccc2N1", "inactive"),
    ("CCOC(=O)c1sc(NC(=O)COc2cccc(/C=C3\\CCc4cc(OC)ccc4C3=O)c2)nc1C", "inactive"),
    ("COc1ccc(CNC(=O)c2c(C)n([O-])c3ccc(OC)cc3[n+]2=O)cc1", "inactive"),
    ("COc1ccc2c(=O)c(OC)c(-c3cc(OC)c(OC)c(OC)c3)oc2c1", "inactive"),
    ("CCCCNCCCN(CCCC)CCCNCCCC", "inactive"),
    ("Cc1ncc(C(=O)Nc2ccc(CN3CCN(C)CC3)c(C(F)(F)F)c2)cc1C#Cc1cncc2ncccc12", "inactive"),
    ("CCCCCCCSc1ncnc2[nH]ncc12", "inactive"),
    ("CCN(CC)c1ccc(C(=C2C=CC(=[N+](CC)Cc3cccc(S(=O)(=O)O)c3)C=C2)c2ccc(N(CC)Cc3cccc(S(=O)(=O)O)c3)cc2)cc1", "inactive"),
    ("C=C1CCC2C3(C)COC(c4ccccc4)OC3CCC2(C)C1C/C=C1/C(=O)OCC1OC(C)=O (centres undefined)", "inactive"),
    ("O=C(NCCCl)NCCN1c2nc3ccccc3cc2Sc2cc3ccccc3nc21", "inactive"),
    ("COC(=O)[C@H](Cc1cn(C)cn1)NC(=O)[C@@H](NC(=O)Nc1cc(C(F)(F)F)cc(C(F)(F)F)c1)C(C)C", "active"),
    ("Cc1cc(C)nc(NS(=O)(=O)c2ccc(Nc3nc4nc(SCc5ccccc5)nc(-c5ccc(O)cc5)c4c(=O)[nH]3)cc2)n1", "inactive"),
    ("COc1cccc(/C=N\\NC(=O)c2ccncc2)c1O", "inactive"),
    ("NS(=O)(=O)c1ccc(-n2ncc3c(SCc4ccccc4)ncnc32)cc1", "inactive"),
    ("NC(=N\\N=C/Cc1ccccc1)/C(N)=N\\N=C\\Cc1ccccc1", "inactive"),
    ("CC(=O)N1N=C(c2ccc(Cl)cc2)CC1c1c(C)nn(-c2ccccc2)c1N(C)Cc1ccccc1 (centres undefined)", "inactive"),
    ("O=Cc1ncc(-c2ccc(C(F)(F)F)cc2)c(NC2CCCCCC2)n1", "active"),
    ("CCCCN=C(N)c1ccc(OCCSCCOc2ccc(C(N)=NCCCC)cc2)cc1", "inactive"),
    ("COc1cc(/C=C/c2cc(/C=C/c3ccc(O)c(OC)c3)n(C(=O)c3ccc(Cl)cc3)n2)ccc1O", "inactive"),
    ("COc1cc(C(=O)c2cc3c(cc2C)OCO3)cc(OC)c1OC", "inactive"),
    ("COc1cnc2c(c1)C(=O)c1c-2n(CCCN2CCNCC2)c(=O)c2cc(F)ccc12", "inactive"),
    ("Cc1ccc(S(=O)(=O)N2CCN(C(=O)CSc3nc4ccc(C)cc4[nH]3)CC2)cc1", "inactive"),
    ("O=C(Oc1cccc2ccccc12)c1ccccc1C(=O)c1ccccc1", "inactive"),
    ("CCCCCCCC[Si](OCC)(OCC)OCC", "inactive"),
    ("COc1cc(NC(=O)NCc2ccco2)ccc1-c1ccc(NC(=O)NCc2ccco2)cc1OC", "inactive"),
    ("COc1ccc(NC(=O)c2ccc(-c3ccccc3)cc2)c(C(N)=O)c1", "inactive"),
    ("COc1cc(C2CC(c3ccc(C)cc3)=NN2C=O)ccc1OCCN(C)C (centres undefined)", "inactive"),
    ("C[C@H](C(=O)N[C@@H](Cc1ccc(-c2ccccc2)cc1)C(=O)NC1CC(C)(C)NC(C)(C)C1)c1ccc(-c2ccccc2)c(F)c1", "inactive"),
    ("COc1ccc2c(c1)sc1nc(-c3ccc(Br)cc3)cn12", "inactive"),
    ("O=C(/C=C/c1cccc(O)c1)c1cccc(-n2cc(-c3ccccc3)[nH]c2=O)c1", "active"),
    ("N#Cc1c(NC(=O)c2ccco2)[n+]([O-])c2cc(Cl)c(Cl)cc2[n+]1[O-]", "inactive"),
    ("Nc1nc(SCc2cccnc2)c2ncn(C3OC(CO)C(O)C3O)c2n1 (centres undefined)", "inactive"),
    ("CC(NNC(=S)N1CCCCCC1)c1ccc2ccccc2n1 (centres undefined)", "inactive"),
    ("C[C@H]1O[C@@H](O[C@H]2[C@@H](O)C[C@H](O[C@H]3[C@@H](O)C[C@H](O[C@H]4CC[C@]5(C)C6CC[C@]7(C)[C@@H](C8=CC(=O)OC8)CC[C@]7(O)C6CC[C@@H]5C4)O[C@@H]3C)O[C@@H]2C)C[C@H](O)[C@@H]1O (some centres undefined)", "active"),
]
